- measuredOn: Beta-2 adrenergic receptor (Homo sapiens)
- Sequence (P07550 whole entry, looked up): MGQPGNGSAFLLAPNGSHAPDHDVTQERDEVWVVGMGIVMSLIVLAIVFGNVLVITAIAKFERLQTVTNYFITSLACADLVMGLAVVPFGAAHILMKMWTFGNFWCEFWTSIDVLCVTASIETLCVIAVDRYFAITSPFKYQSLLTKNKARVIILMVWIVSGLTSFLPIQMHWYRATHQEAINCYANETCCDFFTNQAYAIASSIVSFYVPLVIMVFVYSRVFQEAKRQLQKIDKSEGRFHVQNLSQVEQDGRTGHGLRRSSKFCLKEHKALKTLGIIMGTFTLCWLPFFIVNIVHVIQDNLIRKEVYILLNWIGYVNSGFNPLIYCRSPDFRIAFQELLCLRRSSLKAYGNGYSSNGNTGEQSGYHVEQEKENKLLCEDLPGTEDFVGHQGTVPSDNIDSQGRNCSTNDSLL
- runDescription: Agonist activity at human beta2-AR expressed in CHOK1 cells co-expressing Galpha15 at 100 uM measured after 21 secs to 120 secs by Calcium-4 dye based FLIPR assay relative to 1 uM isoproterenol
- Format: functional, cell-based
One threshold, 40%, splits the recorded Activity values: lower ones are Condition met, equal or higher ones are Condition not met.

Query: Given the entry NCCc1ccc(O)c(O)c1 , would its reported Activity be below 40%?
Reply: Condition not met

Query: Given the entry Oc1cc2c(cc1O)C(c1ccco1)=NCC2 , would its reported Activity be below 40%?
Reply: Condition not met

Query: Given the entry Oc1cc2c(cc1O)[C@@H](Cc1ccccc1)NCC2 , would its reported Activity be below 40%?
Reply: Condition not met

Query: Given the entry O=C1NCCc2cc(O)c(O)cc21 , would its reported Activity be below 40%?
Reply: Condition met

Query: Given the entry CC1=NCCc2cc(O)c(O)cc21 , would its reported Activity be below 40%?
Reply: Condition met

Query: Given the entry O=C1c2cc(O)c(O)cc2CCn2cccc21 , would its reported Activity be below 40%?
Reply: Condition met

Query: Given the entry CCOC(=O)CC[C@@H]1NCCc2cc(O)c(O)cc21 , would its reported Activity be below 40%?
Reply: Condition not met

Query: Given the entry C[C@@H]1NCCc2cc(O)c(O)cc21 , would its reported Activity be below 40%?
Reply: Condition met

Query: Given the entry Oc1cc2c(cc1O)CC[N+](Cc1ccco1)=C2 , would its reported Activity be below 40%?
Reply: Condition met

Query: Given the entry OCc1ccc(C2=NCCc3cc(O)c(O)cc32)o1 , would its reported Activity be below 40%?
Reply: Condition not met

Query: Given the entry O=C1CC[C@H]2c3cc(O)c(O)cc3CCN12 , would its reported Activity be below 40%?
Reply: Condition not met

Query: Given the entry CC(C)C[C@H]1NCCc2cc(O)c(O)cc21 , would its reported Activity be below 40%?
Reply: Condition not met
